Below is a list of entries, each paired with its recorded IC50 value.
# Study system: System Xc^− cystine/glutamate antiporter (Homo sapiens, UniProt Q9UPY5)
# Sequence (Q9UPY5 1-501): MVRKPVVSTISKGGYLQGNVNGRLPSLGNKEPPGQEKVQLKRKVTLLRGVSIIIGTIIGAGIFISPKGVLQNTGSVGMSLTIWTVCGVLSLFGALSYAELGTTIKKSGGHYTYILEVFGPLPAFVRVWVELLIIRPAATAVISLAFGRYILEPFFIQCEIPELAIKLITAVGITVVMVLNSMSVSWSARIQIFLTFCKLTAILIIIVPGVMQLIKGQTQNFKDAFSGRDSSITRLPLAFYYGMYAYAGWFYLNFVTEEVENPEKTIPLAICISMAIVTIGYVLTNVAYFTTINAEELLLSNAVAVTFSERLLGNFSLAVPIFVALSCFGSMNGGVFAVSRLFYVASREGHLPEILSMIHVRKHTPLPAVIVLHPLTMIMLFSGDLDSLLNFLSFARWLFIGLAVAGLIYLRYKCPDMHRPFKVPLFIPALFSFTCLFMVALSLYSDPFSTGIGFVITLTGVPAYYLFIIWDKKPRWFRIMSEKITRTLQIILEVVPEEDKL
# Sequence (P08195 1-529 partner): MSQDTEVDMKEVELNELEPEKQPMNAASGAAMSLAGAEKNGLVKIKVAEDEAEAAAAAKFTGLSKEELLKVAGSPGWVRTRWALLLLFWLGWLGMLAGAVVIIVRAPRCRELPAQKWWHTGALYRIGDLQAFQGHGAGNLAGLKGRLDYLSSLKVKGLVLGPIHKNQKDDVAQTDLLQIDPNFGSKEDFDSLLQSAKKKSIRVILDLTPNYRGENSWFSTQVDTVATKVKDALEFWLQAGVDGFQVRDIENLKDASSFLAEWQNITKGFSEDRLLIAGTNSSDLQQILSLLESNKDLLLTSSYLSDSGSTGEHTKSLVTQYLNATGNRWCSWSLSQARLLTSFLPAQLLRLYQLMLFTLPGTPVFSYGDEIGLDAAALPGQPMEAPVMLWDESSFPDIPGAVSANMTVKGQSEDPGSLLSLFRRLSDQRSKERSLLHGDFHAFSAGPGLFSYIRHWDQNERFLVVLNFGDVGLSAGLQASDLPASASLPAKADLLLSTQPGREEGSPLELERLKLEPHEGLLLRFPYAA
# Protocol notes: Cystine-induced glutamate release assay
# Format: cell-based
# Set-up: endogenous in cells; host or cells: H4 cells
# Condition description: H4 cells, 50 μM L-Cystine, 2 hours, sodium-free HEPES buffer; read-out: Cystine-induced glutamate release assay (range of pIC50) (converted)

Molecule: CC(=O)c1ccc(NC(=O)CN2C(=O)C(C)c3ncccc3-c3c2cc(C)nc3F)cc1O (single isomer, unassigned) [#16]
Study system: System Xc^− cystine/glutamate antiporter (Homo sapiens, UniProt Q9UPY5)
IC50: 15.8 to 39.8 nM

Molecule: CC(=O)c1ccc(NC(=O)CN2C(=O)C(C)c3ncccc3-c3c(F)cc(N4CC(F)C4)cc32)cc1 (stereo not shown) [#35]
Study system: System Xc^− cystine/glutamate antiporter (Homo sapiens, UniProt Q9UPY5)
IC50: 15.8 to 39.8 nM

Molecule: CC(=O)c1ccc(NC(=O)CN2C(=O)C(C)c3ncccc3-c3c2cc(N2CC(C)(F)C2)nc3F)cc1 (stereo not shown) [#26]
Study system: System Xc^− cystine/glutamate antiporter (Homo sapiens, UniProt Q9UPY5)
IC50: 100 to 501 nM

Molecule: CC(=O)c1ccc(NC(=O)CN2C(=O)C(C)c3ncccc3-c3c2cc(N2CC(C)(O)C2)nc3F)cc1 (stereo not shown) [#25]
Study system: System Xc^− cystine/glutamate antiporter (Homo sapiens, UniProt Q9UPY5)
IC50: 39.8 to 100 nM

Molecule: CC(=O)c1ccc(NC(=O)CN2C(=O)C(C)c3ncccc3-c3c2cc(N2CC(F)(F)C2)nc3F)cc1 (stereo not shown) [#7]
Study system: System Xc^− cystine/glutamate antiporter (Homo sapiens, UniProt Q9UPY5)
IC50: 39.8 to 100 nM

Molecule: COc1cnc2c(c1)-c1c(cc(C)nc1F)N(CC(=O)Nc1ccc(C(C)=O)cc1)C(=O)C2C (single isomer, unassigned) [#20]
Study system: System Xc^− cystine/glutamate antiporter (Homo sapiens, UniProt Q9UPY5)
IC50: 39.8 to 100 nM

Molecule: CC(=O)c1ccc(NC(=O)CN2C(=O)Cc3ncccc3-c3c2cc(N2CC(F)(F)C2)nc3F)cc1 [#22]
Study system: System Xc^− cystine/glutamate antiporter (Homo sapiens, UniProt Q9UPY5)
IC50: 39.8 to 100 nM

* * *

Measured IC50 by item
# Study system: System Xc^− cystine/glutamate antiporter (Homo sapiens, UniProt Q9UPY5)
# Protocol notes: [^14C]L-Cystine uptake assay
# Format: cell-based
# Condition description: H4 cells, 15 min preincubation, 1 hour at 37° C., sodium-free HEPES buffer; read-out: [^14C] L-Cystine uptake assay (range of pIC50) (converted)
Measurement type: IC50

Compound: CC(=O)c1ccc(NC(=O)CN2C(=O)Cc3ncccc3-c3c2cc(N2CC(F)C2)nc3F)cc1 [#21]
Experimental result: < 15.8 nM
--
Compound: CC(=O)c1ccc(NC(=O)CN2C(=O)C(C)c3ncccc3-c3c2cc(N2CC(C)(O)C2)nc3F)cc1 (stereo not drawn) [#25]
Experimental result: 15.8 to 39.8 nM
--
Compound: COc1cc2c(cn1)-c1cc(F)cnc1C(C)C(=O)N2CC(=O)Nc1ccc(C(C)=O)cc1 (single isomer, unassigned) [#32]
Experimental result: 15.8 to 39.8 nM
--
Compound: Cc1cc2c(c(F)n1)-c1cccnc1[C@@H](C)C(=O)N2CC(=O)Nc1ccc(C(=O)C2CC2)cc1 [#2]
Experimental result: 100 to 501 nM
--
Compound: CC(=O)c1ccc(NC(=O)CN2C(=O)C(C)c3ncccc3-c3c2cc(F)nc3F)cc1 (single isomer, unassigned) [#23]
Experimental result: 39.8 to 100 nM
--
Compound: CC(=O)c1ccc(NC(=O)CN2C(=O)Cc3ncccc3-c3c2cc(N2CC(C)(O)C2)nc3F)cc1 [#27]
Experimental result: 15.8 to 39.8 nM
--
Compound: COc1nccc2c1-c1cccnc1C(C)C(=O)N2CC(=O)Nc1ccc(C(C)=O)cc1 (single isomer, unassigned) [#14]
Experimental result: 15.8 to 39.8 nM
--
Compound: CC(=O)c1ccc(NC(=O)CN2C(=O)Cc3ncccc3-c3c2cc(N2CC(F)(F)C2)nc3F)cc1 [#22]
Experimental result: 15.8 to 39.8 nM
--
Compound: CC(=O)c1ccc(NC(=O)CN2C(=O)C(C)c3ncc(F)cc3-c3cc(C#N)c(C)cc32)cc1 (single isomer, unassigned) [#19]
Experimental result: < 15.8 nM
--
Compound: COc1cnc2c(c1)-c1cnc(C)cc1N(CC(=O)Nc1ccc(C(C)=O)cc1)C(=O)C2C (single isomer, unassigned) [#12]
Experimental result: 39.8 to 100 nM
--
Compound: CC(=O)c1ccc(NC(=O)CN2C(=O)[C@H](C)c3ncc(F)cc3-c3c2cc(C)nc3F)cc1 [#3]
Experimental result: 15.8 to 39.8 nM
--
Compound: CC(=O)c1ccc(NC(=O)CN2C(=O)C(C)c3ncccc3-c3c2cc(N2CC(F)(F)C2)nc3F)cc1 (stereo not drawn) [#7]
Experimental result: < 15.8 nM
--
Compound: COc1cc2c(c(F)n1)-c1cccnc1C(C)C(=O)N2CC(=O)Nc1ccc(C(C)=O)cc1 (single isomer, unassigned) [#11]
Experimental result: 15.8 to 39.8 nM
--
Compound: CC(=O)c1ccc(NC(=O)CN2C(=O)C(C)c3ncccc3-c3c2cc(C2(O)CCC2)nc3F)cc1 (stereo not drawn) [#29]
Experimental result: 39.8 to 100 nM
--
Compound: CC(=O)c1ccc(NC(=O)CN2C(=O)C(C)c3cnc(F)cc3-c3c2cc(C)nc3F)cc1 (stereo not drawn) [#34]
Experimental result: 39.8 to 100 nM
--
Compound: COc1cnc2c(c1)-c1c(cc(C)nc1F)N(CC(=O)Nc1ccc(C(C)=O)cc1)C(=O)C2C (single isomer, unassigned) [#20]
Experimental result: 15.8 to 39.8 nM
--
Compound: CC(=O)c1ccc(NC(=O)CN2C(=O)Cc3ccccc3-c3c2cc(C)nc3F)cc1 [#10]
Experimental result: 39.8 to 100 nM
--
Compound: CC(=O)c1ccc(NC(=O)CN2C(=O)C(C)c3ncccc3-c3c2cc(C)nc3Cl)cc1 (single isomer, unassigned) [#6]
Experimental result: < 15.8 nM
--
Compound: CC(=O)c1ccc(NC(=O)CN2C(=O)C(C)c3ncccc3-c3c2cc(C)nc3F)cc1O (single isomer, unassigned) [#16]
Experimental result: < 15.8 nM
--
Compound: CC(=O)c1ccc(NC(=O)CN2C(=O)C(C)c3nscc3-c3c2cc(C)nc3F)cc1 (stereo not drawn) [#28]
Experimental result: 100 to 501 nM
--
Compound: CC(=O)c1ccc(NC(=O)CN2C(=O)C(C)c3ncc(F)cc3-c3cnc(C)cc32)cc1 (stereo not drawn) [#4]
Experimental result: 39.8 to 100 nM
--
Compound: CC(=O)c1ccc(NC(=O)CN2C(=O)C(C)c3ncccc3-c3c2cc(C2CCC2)nc3F)cc1 (stereo not drawn) [#31]
Experimental result: 15.8 to 39.8 nM
--
Compound: CC(=O)c1ccc(NC(=O)CN2C(=O)[C@H](C)c3ncccc3-c3c2cc(C)nc3F)cc1 [#1]
Experimental result: 15.8 to 39.8 nM
--
Compound: CCC(=O)c1ccc(NC(=O)CN2C(=O)[C@H](C)c3ncccc3-c3c2cc(C)nc3F)cc1 [#15]
Experimental result: 39.8 to 100 nM
--
Compound: CC(=O)c1ccc(NC(=O)CN2C(=O)C(C)c3ncc(F)cc3-c3c2cc(C)nc3F)cc1O (single isomer, unassigned) [#33]
Experimental result: < 15.8 nM
--
Compound: Cc1cc2c(c(F)n1)-c1cc(F)cnc1C(C)C(=O)N2CC(=O)Nc1ccc2c(c1)OCC2=O (single isomer, unassigned) [#18]
Experimental result: 39.8 to 100 nM
--
Compound: CC(=O)c1ccc(NC(=O)CN2C(=O)Cc3ncccc3-c3c2cc(N2CC4(C2)CC4(F)F)nc3Cl)cc1 [#9]
Experimental result: 39.8 to 100 nM
--
Compound: CC(=O)c1ccc(NC(=O)CN2C(=O)C(C)c3ncccc3-c3c2cc(N2CC(F)C2)nc3F)cc1 (stereo not drawn) [#8]
Experimental result: < 15.8 nM
--
Compound: CC(=O)c1ccc(NC(=O)CN2C(=O)C(C)c3ncc(F)cc3-c3c2cc(CO)nc3F)cc1 (stereo not drawn) [#30]
Experimental result: 100 to 501 nM
--
Compound: CC(=O)c1ccc(NC(=O)CN2C(=O)C(C)c3ncccc3-c3c2cc(C)nc3F)cc1F (stereo not drawn) [#24]
Experimental result: 15.8 to 39.8 nM
